# System: Staphylococcus aureus
# PROCEDURE SUMMARY: Antimicrobial activity against Staphylococcus aureus MTCC 96 after 24 and 48 hr by serial broth dilution method
# Type: functional
READOUT NAME: MIC99 (µg/mL)
// note: answer is a bare numeric in µg/mL

Please review the entries below; each comes with its answer.
O=c1c2ccccc2nc(-c2ccccc2Cl)n1CCc1ccc2nc(-c3ccccc3Cl)n(-c3ccc(Br)cc3)c(=O)c2c1 = 500
O=c1c2ccccc2nc(-c2ccccc2Cl)n1CCc1ccc2nc(-c3ccccc3Cl)n(-c3c(Cl)cc([N+](=O)[O-])cc3Cl)c(=O)c2c1 = 100
COc1ccc(-n2c(-c3ccccc3Cl)nc3ccc(CCn4c(-c5ccccc5Cl)nc5ccccc5c4=O)cc3c2=O)c([N+](=O)[O-])c1 = 100

The observed MIC99 for "O=c1c2ccccc2nc(-c2ccccc2Cl)n1CCc1ccc2nc(-c3ccccc3Cl)n(-c3ccccc3[N+](=O)[O-])c(=O)c2c1" when tested with Staphylococcus aureus stands at 200
